Test system: Bacillus subtilis
Experiment: cleaved RNA product abundance (RNA/gDNA barcode ratio) relative to median wild-type variant (ratio to wild type); higher = more accumulation of the downstream cleavage product
Details: experiment (reporter, strain, medium): exp 4a: truncated aprE reporter, strain BJT201 with 2% xylose (RNase J1 expressed); cleavage site: cggR-gapA (positions -7 to +36 mutated)
Classification field: Fulfilled = cleaved RNA product abundance at or over 0.2; Not fulfilled = cleaved RNA product abundance under 0.2.

Lookup: Has `ACAGACGAAGGAGCCGCAAAGAAGTTATTAAGGGATGAATAATGGCTCAATATAAATATCTCTCACTTATTTAAA` a recorded cleaved RNA product abundance greater than or equal to 0.2?
Found: Not fulfilled

Lookup: Has `ACAGACGAAGGAGCCGCAAAGAAGTTATTAAGGGATGAATTATCACTCAATATAAATATCTCTCACTTATTTAAA` a recorded cleaved RNA product abundance greater than or equal to 0.2?
Found: Not fulfilled

Lookup: Has `ACAGACGAAGGAGCCGCAAAGAAGTTAAAAAAGGATGAATAATCCCTCAATATAAATATCTCTCACTTATTTAAA` a recorded cleaved RNA product abundance greater than or equal to 0.2?
Found: Fulfilled

Lookup: Has `ACAGACGAAGGAGCCGCAAAGAAGTTACTAATGGATGAATAATCCCTCAATATAAATATCTCTCACTTATTTAAA` a recorded cleaved RNA product abundance greater than or equal to 0.2?
Found: Not fulfilled

Lookup: Has `ACAGACGAAGGAGCCGCAAAGAAGTTATTAAGGGATGGATAATCCCTCAATATAAATATCTCTCACTTATTTAAA` a recorded cleaved RNA product abundance greater than or equal to 0.2?
Found: Fulfilled

Lookup: Has `ACAGACGAAGGAGCCGCAACGAAGTTATTAAGGAATAAATAATCCCTCAATATAAATATCTCTCACTTATTTAAA` a recorded cleaved RNA product abundance greater than or equal to 0.2?
Found: Not fulfilled
